Recorded values, source paper PMC10397247.

Biological target: T1, 4H2211-AA
T1 chain: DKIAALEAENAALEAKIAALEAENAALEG
Experiment: two-hybrid library CCmax;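 further: natural log of median RNA to DNA barcode read ratio; higher means stronger binding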
Details: mean of both orientations
readout kind: interaction score

[a] DEIAALKAKNAALKAKNAALKAEIAALEG [4H1017-AA]
[b] DENAALEAEIAALEAKNAALKAEIAALKG [4H1082-AA]
IN: Quick one: lower interaction score, a or b ? Record your answer as the label of the chosen record.
OUT: a

[1] DENAALEAENAALEAKIAALKAKIAALKG [4H1198-AA]
[2] DENAALEAKIAALKAKNAALKAKIAALEG [4H1405-AA]
IN: Quick one: lower interaction score, 1 or 2 ? Record your answer as the label of the chosen record.
OUT: 1
(1: -1.3, 2: 1.88)
